System: rodent lifetime carcinogenesis bioassay, tumor incidence TD50
Test: carcinogenic potency in animals, long-term in vivo studies, CPDB compilation (AID 1745844)
Conditions: mouse; strain B6C3F1; males; oral dosing; site: any site (literature study); lesion: several types; types named in the paper; dosed 76 weeks; study length 76 weeks
Active and inactive are the calls of the source. No rule for the calls is given here.
reported property: TD50

# compound, TD50
rows = [
    ("O=[N+]([O-])c1cc([N+](=O)[O-])c(Cl)c(Cl)c1Cl", "19.8 mg/kg/day"),
    ("CCCCN(CCCC)C(=S)[S-].CCCCN(CCCC)C(=S)[S-].[Ni+2]", "0.0283 mg/kg/day (inactive)"),
    ("O=C1c2ccccc2C(=O)N1SC(Cl)(Cl)Cl", "87.7 mg/kg/day (inactive)"),
]

Which TD50 is listed for O=C1NCCN1 ? 87.1 mg/kg/day (inactive)

Which TD50 is listed for COC(C(=O)O)c1ccccc1 (centres undefined) ? 54.2 mg/kg/day (inactive)

Which TD50 is listed for CCN(CC)C(=S)S ? 71.4 mg/kg/day

====

System: rodent lifetime carcinogenesis bioassay, tumor incidence TD50
Assay: carcinogenic potency in animals, long-term in vivo studies, CPDB compilation (AID 1745844)
Details: mouse; strain C3Hf/Dp; males; in drinking water; site: lung; lesion: adenoma; dosed 60 weeks; study length 105 weeks
Active and inactive are the calls of the source. No rule for the calls is given here.
reported property: TD50

Which TD50 is listed for C1N2CN3CN1CN(C2)C3 ? 293000 mg/kg/day (inactive)

====

System: rodent lifetime carcinogenesis bioassay, tumor incidence TD50
Experiment: carcinogenic potency in animals, long-term in vivo studies, CPDB compilation (AID 1745844)
Conditions: mouse; strain Swiss albino; males; in drinking water; site: forestomach; lesion: squamous-cell papilloma; dosed 93 weeks; study length 93 weeks
reported property: TD50

Which TD50 is listed for C=CCN(N)CC=C ? 48.1 mg/kg/day

====

Tested on: rodent lifetime carcinogenesis bioassay, tumor incidence TD50
Experiment: carcinogenic potency in animals, long-term in vivo studies, CPDB compilation (AID 1745844)
Details: rat; strain Sprague-Dawley; males; by gavage; site: liver; lesion: hepatocellular carcinoma; dosed 104 weeks; study length 104 weeks
reported property: TD50 (mg/kg/day)
// return numeric value only (unit: mg/kg/day, not printed)

Which TD50 is listed for CC(C(O)c1ccccc1)N(C)N=O (stereo unspecified) ? 138

====

Test system: rodent lifetime carcinogenesis bioassay, tumor incidence TD50
Assay: carcinogenic potency in animals, long-term in vivo studies, CPDB compilation (AID 1745844)
Conditions: mouse; strain B6C3F1; females; inhaled; site: liver; lesion: several types; types named in the paper; dosed 52 weeks; study length 104 weeks
reported property: TD50

Which TD50 is listed for ClCCl ? 2850 mg/kg/day

====

Test system: rodent lifetime carcinogenesis bioassay, tumor incidence TD50
Assay: carcinogenic potency in animals, long-term in vivo studies, CPDB compilation (AID 1745844)
Conditions: rat; strain Fischer 344; females; in feed; site: urinary bladder; lesion: papillary carcinoma + transitional-cell carcinoma; dosed 78 weeks; study length 105 weeks
reported property: TD50

Which TD50 is listed for Nc1ccc(Cl)cc1N ? 429 mg/kg/day

====

Tested on: rodent lifetime carcinogenesis bioassay, tumor incidence TD50
Test: carcinogenic potency in animals, long-term in vivo studies, CPDB compilation (AID 1745844)
Conditions: rat; strain Fischer 344; males; in feed; site: liver; lesion: hepatocellular carcinoma; dosed 13 weeks; study length 13 weeks
reported property: TD50 (mg/kg/day)
// return numeric value only (unit: mg/kg/day, not printed)

Which TD50 is listed for Nc1ccc(N=Nc2ccc(-c3ccc(N=Nc4c(S(=O)(=O)O)cc5cc(S(=O)(=O)O)c(N=Nc6ccccc6)c(O)c5c4N)cc3)cc2)c(N)c1 ? 2.22
